# Tested target: human CD40 on the cell surface (human, UniProt P25942 21-277)
# Sequence (P25942 21-277): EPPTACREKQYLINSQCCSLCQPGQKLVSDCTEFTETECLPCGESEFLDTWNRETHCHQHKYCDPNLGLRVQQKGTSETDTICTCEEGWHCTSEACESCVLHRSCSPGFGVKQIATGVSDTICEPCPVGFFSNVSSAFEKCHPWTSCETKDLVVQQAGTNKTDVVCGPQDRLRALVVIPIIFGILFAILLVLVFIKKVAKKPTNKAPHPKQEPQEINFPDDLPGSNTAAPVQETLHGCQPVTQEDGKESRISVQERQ
# Procedure text: cell-based or functional assay
Pro-apoptosis activity (IC50) overview

>  <Binder>
cR-8 chimeric anti-CD40 antibody (antibody, V domains shown) VH: QSLEESGGDLVKPGASLTLTCTASGFSFSSTYVCWVRQAPGKGLEWIACIYTGDGTNYSASWAKGRFTISKPSSTTVTLQMTSLTPADTATYFCARPDITYGFAINFWGPGTLVTVSS VL: DIVMTQTPSSASEPVGGTVTIKCQASQSISSRLAWYQQKPGQPPKLLIYRASTLASGVPSRFKGSGSGTEFTLTISDLECADAATYYCQCTGYGISWPIGGGTEVVVK

>  <Pro-apoptosis activity (IC50)>
0.45 µg/mL

$$$$
>  <Binder>
cR-3 chimeric anti-CD40 antibody (antibody, V domains shown) VH: QSLEESGGDLVKPGASLTLTCTASGFSFSDSFWIAWVRQAPGKGLEWIGCIHALSSGSTYYANWARGRFTISKTSSTTVTLQMNSLTAADTATYFCARSYAGYADYNVATGLNLWGPGTLVTVSS VL: DVVMTQTPSSASAAVGGTVTTKCQASQSIGSYLAWYQQKPGQRPKLLIYAASNLASGVPSRFKGSRSGTEYTLTISGVQREDAATYYCLGSFTGSDTTFGGGTELEIL

>  <Pro-apoptosis activity (IC50)>
0.57 µg/mL

$$$$
>  <Binder>
cR-33 chimeric anti-CD40 antibody (antibody, V domains shown) VH: QSLEESGGDLVKPGASLTLTCTASGFSFSSSYWICWVRQAPGKGLEWIACINTGSSVTTVYARWAKGRFTISKASSTTVTLQMTSLTAADTATYFCARYIIPGYNFNLWGPGTLVTVSS VL: AYDMTQTPASVEVAVGGTVTINCQASQSISSYLYWYQQKPGQPPKLLIYDASKLASGVPSRFKGSGSGTQFTLTITGVECADAATYYCQQGYSHINVDNIFGGGTEVVVK

>  <Pro-apoptosis activity (IC50)>
0.9 µg/mL

$$$$
>  <Binder>
c19-21 chimeric anti-CD40 antibody (antibody, V domains shown) VH: QSLEESGGRLVTPGTPLTLTCTVSGFDLSSNAMNWVRQAPGKGLEWIGYITISGSAGYASWAKGRFTISKTSTTVDLKISSPTTEDTATYFCARGYNTMAIWGPGTLVTVSS VL: AQVLTQTPSPVSAPVGGTVTINCQSSQNVLINNRLAWYQQKPGQPPKLLIYDASKLASGVPSRFKGSGSGTQFTLTISGVQCDDAATYYCQAGYSSGDGNAFGGGTEVVVK

>  <Pro-apoptosis activity (IC50)>
0.02 µg/mL

$$$$
